A set of molecules tested on MTP (Homo sapiens), with measured IC50:

Reference set, count: 3
>  <MOLECULE>
CCOC(=O)[C@]1(c2ccccc2)CC[C@H](C(=O)N(C)CCNC(=O)c2ccccc2)c2ccccc21 [compound 19]

>  <IC50>
131 nM

$$$$
>  <MOLECULE>
CCOC(=O)[C@]1(c2ccccc2)CC[C@H](C(=O)NCCCNC(=O)c2ccccc2)c2ccccc21 [compound 16]

>  <IC50>
> 100 nM

$$$$
>  <MOLECULE>
COC(=O)CCNC(=O)[C@]1(c2ccccc2)CC[C@@H](C(=O)N2CCCC(NC(=O)c3ccccc3OC)CC2)c2ccccc21 (stereo partly shown) [compound 44]

>  <IC50>
52.8 nM

$$$$

What value of IC50 has been reported for the following molecule? CCOC(=O)[C@]1(c2ccccc2)CC[C@@H](C(=O)NCCNC(=O)c2ccccc2-c2ccc(C(F)(F)F)cc2)c2ccccc21 [compound 3] 208 nM

====

Answer each item with its documented IC50.
MEASUREMENT TARGET: MTP (Homo sapiens)
Sequence (P55157 19-894, species assumed): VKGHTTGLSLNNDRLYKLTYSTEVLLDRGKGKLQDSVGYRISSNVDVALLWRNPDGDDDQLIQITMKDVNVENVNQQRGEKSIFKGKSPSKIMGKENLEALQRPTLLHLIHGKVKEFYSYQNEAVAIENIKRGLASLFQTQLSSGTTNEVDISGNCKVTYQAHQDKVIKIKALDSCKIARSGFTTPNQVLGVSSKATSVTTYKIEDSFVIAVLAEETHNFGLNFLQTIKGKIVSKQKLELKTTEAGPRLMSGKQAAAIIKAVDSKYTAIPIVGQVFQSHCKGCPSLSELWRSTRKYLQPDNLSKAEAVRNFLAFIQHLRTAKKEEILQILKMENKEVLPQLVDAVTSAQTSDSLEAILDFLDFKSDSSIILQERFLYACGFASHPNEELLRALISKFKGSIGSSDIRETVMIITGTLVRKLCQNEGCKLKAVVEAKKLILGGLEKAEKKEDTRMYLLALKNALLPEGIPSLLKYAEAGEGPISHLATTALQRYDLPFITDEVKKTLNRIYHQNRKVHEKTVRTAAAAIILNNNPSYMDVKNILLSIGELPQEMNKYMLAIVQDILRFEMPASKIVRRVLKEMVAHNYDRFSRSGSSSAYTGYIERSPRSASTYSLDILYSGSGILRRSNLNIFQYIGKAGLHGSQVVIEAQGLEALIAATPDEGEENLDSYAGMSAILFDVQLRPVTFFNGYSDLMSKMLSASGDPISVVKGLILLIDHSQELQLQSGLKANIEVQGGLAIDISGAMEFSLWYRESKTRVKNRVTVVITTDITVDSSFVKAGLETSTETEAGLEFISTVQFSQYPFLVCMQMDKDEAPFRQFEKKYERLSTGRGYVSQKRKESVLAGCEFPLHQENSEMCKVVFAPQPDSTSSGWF
Sequence (P07237 18-508 partner, species assumed): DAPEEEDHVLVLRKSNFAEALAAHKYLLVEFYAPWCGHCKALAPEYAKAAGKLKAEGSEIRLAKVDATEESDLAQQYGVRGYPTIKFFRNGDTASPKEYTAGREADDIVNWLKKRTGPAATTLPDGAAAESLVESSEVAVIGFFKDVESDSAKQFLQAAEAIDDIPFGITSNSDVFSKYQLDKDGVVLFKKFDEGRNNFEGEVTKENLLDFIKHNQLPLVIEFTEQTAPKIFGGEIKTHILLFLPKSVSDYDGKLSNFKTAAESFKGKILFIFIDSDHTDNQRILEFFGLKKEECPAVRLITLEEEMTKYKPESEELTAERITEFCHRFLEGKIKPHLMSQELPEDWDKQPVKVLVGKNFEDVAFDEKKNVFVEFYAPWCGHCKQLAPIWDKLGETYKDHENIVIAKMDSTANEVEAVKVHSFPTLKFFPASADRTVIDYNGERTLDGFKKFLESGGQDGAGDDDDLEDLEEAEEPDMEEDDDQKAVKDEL

Reference set, count: 3
>  <COMPOUND>
COC(=O)CCNC(=O)[C@]1(c2ccccc2)CC[C@@H](C(=O)N(C)CCCNC(=O)c2cccnc2OC)c2ccccc21 [compound 32]

>  <EXPERIMENTAL RESULT>
166 nM

$$$$
>  <COMPOUND>
CCOC(=O)[C@]1(c2ccccc2)CC[C@@H](C(=O)N(C)CCNC(=O)c2ccccc2)c2ccccc21 [compound 7]

>  <EXPERIMENTAL RESULT>
85.5 nM

$$$$
>  <COMPOUND>
CCOC(=O)[C@]1(c2ccccc2)CC[C@H](C(=O)NCCNC(=O)c2ccccc2)c2ccccc21 [compound 13]

>  <EXPERIMENTAL RESULT>
5380 nM

$$$$

What value of IC50 has been reported for the following compound? CCOC(=O)[C@@]1(c2ccccc2)CC[C@H](C(=O)N(C)CCCNC(=O)c2ccccc2OC)c2ccccc21 (stereo in doubt) [compound 28] 7.18 nM

Values compiled from patent US8158783B2.
